Recorded values, source patent US20140128357A1.

Experiment: Cytotoxicity, MTT assay in 3T3 fibroblasts
Assay type: cell-based, mouse
Details: mouse
Experimental: FIG. 9. Cell survival curves as measured by MTT assay for brassinosteroids 1-9 against the murine fibroblast cell line NIH-3T3. Cells were incubated with various concentrations of brassinosteroids (0.3-30 μM) for 24 h at 37° C. The mean absorbance of the control cells represented 100% cell proliferation, and the mean absorbance of treated cells was related to control values to determine sensitivity. […]
pIC50: −log10 of the molar value.
ATTRIBUTE_MEASURED: pIC50

compound="CC[C@@H](C(C)C)[C@H](O)[C@@H](O)[C@@H](C)[C@H]1CC[C@H]2[C@@H]3CC(=O)[C@H]4C[C@H](F)CC[C@]4(C)[C@H]3CC[C@]12C [Compound 4]" attribute_measured=pIC50 observed=~4.52
compound="CC[C@@H](C(C)C)[C@H](O)[C@@H](O)[C@@H](C)[C@H]1CC[C@H]2[C@@H]3CC(=O)[C@H]4C[C@H](O)[C@H](O)C[C@]4(C)[C@H]3CC[C@]12C [Compound 2]" attribute_measured=pIC50 observed="< 4.52"

---

system: L6 rat myotubes; assay: Protein synthesis, [3H]-phenylalanine incorporation in myotubes; format: cell-based; settings: 10 μM, 4 h
ATTRIBUTE_MEASURED: Protein synthesis (% increase over control) (%)

molecule=CC[C@@H](C(C)C)[C@H](O)[C@@H](O)[C@@H](C)[C@H]1CC[C@H]2[C@@H]3CNC(=O)[C@H]4C[C@H](O)[C@H](O)C[C@]4(C)[C@H]3CC[C@]12C observed=20.9
molecule=CC[C@@H](C(C)C)[C@H](O)[C@@H](O)[C@@H](C)[C@H]1CC[C@H]2[C@@H]3COC(=O)[C@H]4C[C@H](O)[C@H](O)C[C@]4(C)[C@H]3CC[C@]12C observed=37.2
molecule=CC[C@@H](C(C)C)[C@@H](O)[C@H](O)[C@@H](C)[C@H]1CC[C@H]2[C@@H]3COC(=O)[C@H]4C[C@H](O)[C@H](O)C[C@]4(C)[C@H]3CC[C@]12C observed=13.1
molecule=CC[C@@H](C(C)C)[C@H](O)[C@@H](O)[C@@H](C)[C@H]1CC[C@H]2[C@@H]3CC(=O)[C@H]4C[C@H](O)[C@H](O)C[C@]4(C)[C@H]3CC[C@]12C observed=41.0
molecule=CC[C@@H](C(C)C)[C@H](O)[C@@H](O)[C@@H](C)[C@H]1CC[C@H]2[C@@H]3COC(=O)[C@H]4C[C@H](F)CC[C@]4(C)[C@H]3CC[C@]12C observed=24.6
molecule=CC[C@@H](C(C)C)[C@H](O)[C@@H](O)[C@@H](C)[C@H]1CC[C@H]2[C@@H]3CC(=O)N[C@H]4C[C@H](O)[C@H](O)C[C@]4(C)[C@H]3CC[C@]12C observed=3.3
molecule=CC(C)[C@H](C)[C@H](O)[C@@H](O)[C@@H](C)[C@H]1CC[C@H]2[C@@H]3COC(=O)[C@H]4C[C@@H](O)[C@H](O)C[C@]4(C)[C@H]3CC[C@]12C observed=4.1
molecule="CC(C)C(C)C(O)C(O)C(C)C1CCC2C3COC(=O)C4CC(O)C(O)CC4(C)C3CCC12C (stereo not drawn)" observed=11.7
molecule=CC[C@@H](C(C)C)[C@H](O)[C@@H](O)[C@@H](C)[C@H]1CC[C@H]2[C@@H]3CC(=O)[C@H]4C[C@H](F)CC[C@]4(C)[C@H]3CC[C@]12C observed=22.5

---

tested on: NIH 3T3 murine fibroblast cell line; assay: Cytotoxicity, MTT assay in 3T3 fibroblasts; assay type: cell-based, mouse; details: 3T3 mouse fibroblasts, MTT, 0.3-30 μM; read-out: Cell cytotoxicity, IC50
pIC50: −log10 of the molar value.
ATTRIBUTE_MEASURED: pIC50

compound="CC[C@@H](C(C)C)[C@H](O)[C@@H](O)[C@@H](C)[C@H]1CC[C@H]2[C@@H]3COC(=O)[C@H]4C[C@H](O)[C@H](O)C[C@]4(C)[C@H]3CC[C@]12C [Compound 1]" attribute_measured=pIC50 observed="< 4.52"

---

test system: NIH 3T3 murine fibroblast cell line; test: Cytotoxicity, MTT assay in 3T3 fibroblasts; format: cell-based, mouse
pIC50: −log10 of the molar value.
ATTRIBUTE_MEASURED: pIC50

molecule=CC[C@@H](C(C)C)[C@H](O)[C@@H](O)[C@@H](C)[C@H]1CC[C@H]2[C@@H]3CNC(=O)[C@H]4C[C@H](O)[C@H](O)C[C@]4(C)[C@H]3CC[C@]12C target_system="NIH 3T3 murine fibroblast cell line" observed="< 4.52"
molecule=CC[C@@H](C(C)C)[C@@H](O)[C@H](O)[C@@H](C)[C@H]1CC[C@H]2[C@@H]3COC(=O)[C@H]4C[C@H](O)[C@H](O)C[C@]4(C)[C@H]3CC[C@]12C target_system="NIH 3T3 murine fibroblast cell line" observed="< 4.52"
molecule=CC[C@@H](C(C)C)[C@H](O)[C@@H](O)[C@@H](C)[C@H]1CC[C@H]2[C@@H]3COC(=O)[C@H]4C[C@H](F)CC[C@]4(C)[C@H]3CC[C@]12C target_system="NIH 3T3 murine fibroblast cell line" observed=~4.52
molecule="CC(C)C(C)C(O)C(O)C(C)C1CCC2C3COC(=O)C4CC(O)C(O)CC4(C)C3CCC12C (stereo not drawn)" target_system="NIH 3T3 murine fibroblast cell line" observed="< 4.52"
molecule=CC[C@@H](C(C)C)[C@H](O)[C@@H](O)[C@@H](C)[C@H]1CC[C@H]2[C@@H]3CC(=O)N[C@H]4C[C@H](O)[C@H](O)C[C@]4(C)[C@H]3CC[C@]12C target_system="NIH 3T3 murine fibroblast cell line" observed=4.90
molecule=CC(C)[C@H](C)[C@H](O)[C@@H](O)[C@@H](C)[C@H]1CC[C@H]2[C@@H]3COC(=O)[C@H]4C[C@@H](O)[C@H](O)C[C@]4(C)[C@H]3CC[C@]12C target_system="NIH 3T3 murine fibroblast cell line" observed="< 4.52"
